// provenance: paper PMC6038876

- Test Description: Kinetic solubility study of SNMSDs and EDR in SIF pH 6.8
- Type: physicochemical
Endpoint Label: solubility (µg/mL)
The answer is to be given in µg/mL; state only the numeric part.

(Q) Identify measured solubility associated with CC1=NN(c2ccccc2)C(=O)C1 [EDR, 3-methyl-1-phenyl-2-pyrazolin-5-one]
(A) 2290
